Would you kindly list melting point for each of these compounds?

[in] Entry COc1ccc(CC2CCC3NC(=O)CCC3C2)cc1 (centres undefined) : reported melting point = ?
[out] 194 to 196 °C

[in] Entry under review: CC(C)(C)OC(=O)N1CCC(c2cn(S(C)(=O)=O)c3ccccc23)CC1 . Reported melting point?
[out] 136 to 137 °C

[in] Requested read-out: melting point. Entry: COC(=O)NCCSc1cccc2nccn12
[out] 198 to 200 °C

[in] Entry O=C(O)c1cccc(-c2nc(-c3ccc(C(F)(F)F)cc3)co2)c1 : reported melting point = ?
[out] 206 to 208 °C

[in] Which melting point reading was recorded for the compound CC(C)(C)c1nc(C#N)nc(C(C)(C)C)c1O ?
[out] 203 to 205 °C

[in] // melting point lookup, key: CC(=O)NCCOC(c1ccc(F)cc1)c1ccc(F)cc1
[out] 112 to 114 °C

[in] melting point for O=C1Nc2ccccc2C1C(=O)C(F)(F)F (centres undefined) ?
[out] 184 °C

[in] Report melting point for COCCNC(=O)c1cccc(-c2cccc3cc(Cc4cccc(C(C)=O)c4)sc23)c1 please.
[out] 81 to 82 °C

[in] Could you share which melting point value was measured for CCOC(=O)CCC(=O)c1cc(-c2ccccc2)nc2ccccc12 ?
[out] 66 °C

[in] What value of melting point has been recorded for this entry: CN(C(=O)c1nn(-c2ccc(Cl)cc2Cl)c(-c2ccc(Cl)cc2)c1O)N1CCCCC1
[out] 118 °C

[in] Report melting point for N#Cc1cnc2c(c1)N(Cc1cc(F)ccc1F)CCN2 please.
[out] 204 to 206 °C

[in] Reported melting point, compound CC1(C)C(=O)N(c2ccc([N+](=O)[O-])c(C(F)(F)F)c2)C(=O)N1CCOCCN1C(=O)N(c2ccc([N+](=O)[O-])c(C(F)(F)F)c2)C(=O)C1(C)C : ____
[out] 186 to 188 °C

[in] Reported melting point for c1ccc2c(c1)CN(NC1=NCCO1)C2 : what is it?
[out] 220 to 223 °C

[in] Which melting point value is on record for COc1ccc(Cn2c(=O)ccc3cnc(Nc4ccccc4)nc32)cc1 ?
[out] 215 to 216 °C

[in] Consider the compound COc1cc(I)c(Cl)cc1C(=O)N1Cc2cccn2Cc2ccccc21 and give its measured melting point.
[out] 92 to 98 °C

[in] Data request, read-out melting point, for Cc1ccc(CCCCOCCCCCCNCC(O)c2ccc3c(n2)COC(c2ccccc2)O3)cc1 (centres undefined)
[out] 74 °C

[in] So what does the record say about melting point for CCc1nc2c(cnn2CC)c(NC2CCOCC2)c1CNC(=O)c1cccc(C(=O)NCc2ccc(Cl)c(-c3cccc(CN4CC5CC4CN5)c3)c2)c1 (centres undefined) ?
[out] 145 to 149 °C

[in] Which melting point is listed for Cc1c(C)c(N2C(=O)c3ccccc3C2=O)c(C)c2c1OC(C)(C)C2 ?
[out] 166 to 168 °C

[in] # input compound: CCCc1nnc(Cc2ccc(NC(=O)/C=C/c3cnn(C)c3-c3ccc(F)cc3)cc2)o1 ; wanted: its melting point
[out] 154 to 155 °C

* * *

Record form. Attribute: melting point. Fill in for each entry.

[in] Entry CCOC(=O)C=Cc1ccc(NC(=O)OC(C)(C)C)cc1 has what melting point?
[out] 105 to 109 °C

[in] Could you tell me which melting point is on file for COC(=O)CCn1c(C(=O)O)c(C)c2cc(C)ccc21 ?
[out] 169 °C

[in] Form field: reported melting point of Cn1cncc1-c1cccc(Nc2ccc3ccccc3n2)c1
[out] 60 to 65 °C

[in] What does the record list as melting point for CCCCCCn1ccc(=O)c(OCc2ccccc2)c1C ?
[out] 46 °C

[in] Requested field: melting point. Item: CC(=O)OC(C)c1nc2c(C(F)(F)F)cccc2c(O)c1C(=O)Nc1nccs1 (stereo not given)
[out] 262 °C

[in] Field request: melting point | item: Cc1c(Sc2ccc(Cl)cc2)nn(-c2ccc(S(C)(=O)=O)cc2)c(=O)c1C#N
[out] 199 to 201 °C

[in] Give the measured melting point of c1ccc(C(NC23CC4CC(C2)CC(OCc2ccc(-c5nc6ccccc6o5)cc2)(C4)C3)(c2ccccc2)c2ccccc2)cc1 .
[out] 174 to 177 °C

[in] Bench note: what melting point did C=C1C(=O)N(C)CCC1(CC(=O)OC)c1cccc(OC)c1 (stereo not given) show?
[out] 85 to 86 °C

[in] Any idea what melting point was measured for Cc1ccnc(CO)c1Br ?
[out] 75 to 77 °C

[in] Query: melting point; subject: CCCOc1cc(COc2c(CC)cccc2CC(=O)O)n(Cc2ccc3ccccc3n2)n1
[out] 110 to 111 °C
